biological target: F protein of RSV strain 18537 B (infectious virus) (human respiratory syncytial virus …, UniProt P13843 26-574); assay: cell-based or functional assay
Sequence (P13843 26-574): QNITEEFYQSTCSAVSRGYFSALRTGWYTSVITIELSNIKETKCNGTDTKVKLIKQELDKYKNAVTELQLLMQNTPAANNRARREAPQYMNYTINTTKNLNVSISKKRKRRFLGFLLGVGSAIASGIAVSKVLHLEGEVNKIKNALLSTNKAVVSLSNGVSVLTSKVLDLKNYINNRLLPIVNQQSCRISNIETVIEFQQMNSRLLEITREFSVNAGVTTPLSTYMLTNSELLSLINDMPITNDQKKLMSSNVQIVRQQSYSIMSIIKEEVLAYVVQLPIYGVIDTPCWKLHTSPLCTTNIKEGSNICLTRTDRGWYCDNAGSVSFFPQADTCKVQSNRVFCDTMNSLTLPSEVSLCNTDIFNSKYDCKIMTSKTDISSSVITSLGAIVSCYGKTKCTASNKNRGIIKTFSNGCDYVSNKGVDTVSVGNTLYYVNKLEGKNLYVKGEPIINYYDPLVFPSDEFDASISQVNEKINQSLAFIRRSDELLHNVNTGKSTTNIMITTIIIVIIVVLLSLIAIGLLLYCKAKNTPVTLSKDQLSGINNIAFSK
parameter: Neutralization IC50, plaque-reduction assay (µg/mL)
Please state the figure in µg/mL; there is no need to write the unit.

binder | readout_units | value_observed
hRSV12 (antibody, V domains shown) VH: QVQLVQSGAEVKKPGTSVRVSCKTSGYNFMNYGIYWVRQAPGQGLEWVGWISAYNGQTDRAQKFQGRVTMTTDISTNTGYMDLRSLRSDDTAVYFCARGPPVIAAVSLEYWGRGTLVTVSS VL: EVVMTQSPLSLPVTLGQPASISCKSSQSLVHSNGDTYLNWFQQRPGQSPRRLIYKVSNRDSGVPDRFSGSGSGTDFTLKISRVETEDVGVYYCMQATHWPGSFGQGTKLEIK | µg/mL | 0.443
hRSV61 (antibody, V domains shown) VH: QVQLVQSGAELKKPGASVKVSCKASGYTFTNHGITWVRQAPGQGLEWMSWISGYNGNTQYAQKFQGRVTMTTDTSTRTAYMELRSLTSDDTAVYYCARDNGVVVGPPDYWGQGTLVTVSS VL: DIQMTQSPSTLSASVGDRVTISCRASQSISSWLAWYQQKPGKPPKLLIYKASGLQTGVPSRFSGSGSGTEFTLTISSLQPDDFATYYCQYYHSLSAFGQGTKVEIK | µg/mL | 0.09

// next item, Neutralization IC50, plaque-reduction assay requested
Query :: # get_value(readout='Neutralization IC50, plaque-reduction assay', item= hRSV20 (antibody, V domains shown) VH: QVQLVESGGGLVQPGRSLRLSCAASGFTFDDYAMHWVRQAPGRGLEWVSGISWNSGIAVYADSVKGRFTISRDNAKKSLYLQINSLRAEDTALYYCVKDNYASGSYSSYYYYYGLDLWGQGTLVTVSS VL: EIVMTQSPATLSVSPGERATLSCRASQSIISNLAWYQQKPGQAPRLLIYGVSTRATGIPARFSGSGSDTEFTLSISSLQSEDFAVYYCQQYNNWPITFGQGTRLEIK )
Result :: 0.114
